Reference for the values: patent US7964631B2

Test system: peripheral blood mononuclear cells (PBMC)
measurement.notes: Cytotoxicity of test compounds in PBMC, cell viability by MTS reagent
Assay type: cell-based, human
measurement.type: % toxicity (10 μM), 5 h (%)
Numeric answer only, unit % assumed.

Query: Please report the recorded % toxicity (10 μM), 5 h for COC(=O)c1cc(C)c2c(c1)[S+]([O-])Cc1cc(N3CCNCC3)cc(Cl)c1O2.Cl (stereo not shown) .
Result: 25

Query: # query: % toxicity (10 μM), 5 h of entry COC(=O)c1cc(C)c2c(c1)S(=O)(=O)Cc1cc(N3CCNCC3)cc(Cl)c1O2.CS(=O)(=O)O
Result: 66

Query: Given the molecule COC(=O)c1cc(C)c2c(c1)S(=O)(=O)Cc1cc(NC=O)cc(Cl)c1O2 , what is its reported % toxicity (10 μM), 5 h?
Result: 09

Query: Quick one: % toxicity (10 μM), 5 h for COC(=O)c1cc(C)c2c(c1)S(=O)(=O)Cc1ccc(N3CCNCC3)c(Cl)c1O2.Cl ?
Result: 27

---

Test system: peripheral blood mononuclear cells (PBMC)
measurement.notes: Cytotoxicity of test compounds in PBMC, cell viability by MTS reagent
Assay type: cell-based, human
API: label(entry) gives 1.0 if the entry's % toxicity (10 μM), 5 h is strictly smaller than 8%; on equality or larger values it gives 0.0.

Query: Does COC(=O)c1cc(C)c2c(c1)S(=O)(=O)Cc1cc(N3CCN(C(=O)OCc4ccccc4)CC3)cc(Cl)c1O2 have % toxicity (10 μM), 5 h strictly under 8%?
Result: 1.0

Query: In the record for Cc1cc(C(=O)OC(C)C)cc2c1Oc1c(Cl)cc(NC=O)cc1CS2(=O)=O , is % toxicity (10 μM), 5 h less than 8%?
Result: 0.0

Query: Item COC(=O)c1cc(C)c2c(c1)S(=O)(=O)Cc1cc(NC(=O)COC(C)=O)cc(Cl)c1O2 : % toxicity (10 μM), 5 h beneath 8%, strictly?
Result: 1.0

Query: State whether 8% exceeds % toxicity (10 μM), 5 h recorded for COC(=O)c1cc(C)c2c(c1)S(=O)(=O)Cc1cc(N3CCN(S(C)(=O)=O)CC3)cc(Cl)c1O2 .
Result: 0.0

Query: Lab note: confirm whether the reported % toxicity (10 μM), 5 h for this molecule is below 8%, equality not counting. molecule: Cc1cc(C=O)cc2c1Oc1c(Cl)cc(N3CCNCC3)cc1CS2(=O)=O
Result: 1.0

Query: hey, is % toxicity (10 μM), 5 h for COC(=O)c1cc(C)c2c(c1)S(=O)(=O)Cc1cc(N3CCNCC3)cc(Cl)c1O2.Cl lower than 8% or not?
Result: 0.0

Query: Item COC(=O)c1cc(C)c2c(c1)S(=O)(=O)Cc1cc(N)cc(Cl)c1O2 : % toxicity (10 μM), 5 h beneath 8%, strictly?
Result: 0.0

Query: Regarding COC(=O)c1cc(C)c2c(c1)S(=O)(=O)Cc1cc(NC(=O)CO)cc(Cl)c1O2 , kindly confirm whether its % toxicity (10 μM), 5 h is beneath 8%.
Result: 1.0

Query: Record Cc1cc(C(=O)OC(C)C)cc2c1Oc1c(Cl)cc(N3CCNCC3)cc1CS2(=O)=O.Cl : is its % toxicity (10 μM), 5 h strictly below 8%?
Result: 0.0

Query: Threshold test, % toxicity (10 μM), 5 h < 8%: COC(=O)c1cc(C)c2c(c1)S(=O)(=O)Cc1cc(N3CCN(C(=O)c4ccccc4C)CC3)cc(Cl)c1O2
Result: 1.0

Query: Determine if COC(=O)c1cc(C)c2c(c1)S(=O)(=O)Cc1cc(N3CCN(C=O)CC3)cc(Cl)c1O2 shows % toxicity (10 μM), 5 h strictly lower than 8%.
Result: 0.0

Query: Strictly below 8% in % toxicity (10 μM), 5 h? COC(=O)Cc1cc(C)c2c(c1)S(=O)(=O)Cc1cc(N3CCNCC3)cc(Cl)c1O2.Cl
Result: 0.0

Query: % toxicity (10 μM), 5 h strictly < 8% for this molecule? COC(=O)c1cc(C)c2c(c1)S(=O)(=O)Cc1cc(N3CCN(C(C)=O)CC3)cc(Cl)c1O2
Result: 0.0

Query: Please state whether % toxicity (10 μM), 5 h is below 8% for COC(=O)c1cc(C)c2c(c1)S(=O)(=O)Cc1ccc(NCCN)c(Cl)c1O2.Cl
Result: 0.0

Query: Threshold test, % toxicity (10 μM), 5 h < 8%: COC(=O)c1cc(C)c2c(c1)S(=O)(=O)Cc1cc(N3CCCNCC3)cc(Cl)c1O2.Cl
Result: 0.0

Query: % toxicity (10 μM), 5 h under 8%? Item: COC(=O)c1cc(C)c2c(c1)S(=O)(=O)Cc1cc(NC=O)cc(Cl)c1N2
Result: 0.0

Query: I wonder whether COC(=O)c1cc(C)c2c(c1)S(=O)(=O)Cc1cc(N3CCN(CCO)CC3)cc(Cl)c1O2 has % toxicity (10 μM), 5 h below 8%. Can you tell?
Result: 0.0

---

Would you mind telling me the reported melting point of each entry?

Query: Look at this compound and give its reported melting point. COC(=O)c1cc(C)c2c(c1)S(=O)(=O)Cc1ccc(N3CCNCC3)c(Cl)c1O2.Cl [Example 32]
Result: 235 to 237 °C

Query: Recorded melting point of COC(=O)c1cc(C)c2c(c1)S(=O)(=O)Cc1cc(N3CCNCC3)cc(Cl)c1O2.CS(=O)(=O)O [Example 17] , please.
Result: 279 to 281 °C

Query: Could you tell me which melting point is on file for COC(=O)c1cc(C)c2c(c1)S(=O)(=O)Cc1cc(N3CCN(C(=O)OCc4ccccc4)CC3)cc(Cl)c1O2 [Example 26] ?
Result: 170 to 173 °C

Query: Consider the compound COC(=O)c1cc(C)c2c(c1)S(=O)(=O)Cc1cc(N3CCN(C(=O)c4ccccc4C)CC3)cc(Cl)c1O2 [Example 24] and give its measured melting point.
Result: 201 to 204 °C

Query: Please report the recorded melting point for COC(=O)c1cc(C)c2c(c1)S(=O)(=O)Cc1cc(NC(=O)CCl)cc(Cl)c1O2 [Example 4] .
Result: 292 to 293 °C

Query: Bench note: what melting point did COC(=O)c1cc(C)c2c(c1)[S+]([O-])Cc1cc(N3CCNCC3)cc(Cl)c1O2.Cl (centres unmarked) [Example 15] show?
Result: > 320 °C

Query: # melting point lookup, item COC(=O)c1cc(C)c2c(c1)S(=O)(=O)Cc1cc(N(CCO)CCO)cc(Cl)c1O2 [Example 13]
Result: 199 to 201 °C

Query: What value of melting point has been reported for the following compound? CCC(=O)Nc1cc(Cl)c2c(c1)CS(=O)(=O)c1cc(C(=O)OC)cc(C)c1O2 [Example 6]
Result: 226 to 228 °C

---

measurement.type: melting point

Query: Given the compound COC(=O)c1cc(C)c2c(c1)S(=O)(=O)Cc1cc(N)cc(Cl)c1N2 [Example 37] , what is its reported melting point?
Result: 278 to 280 °C

Query: Entry under review: COC(=O)c1cc(C)c2c(c1)S(=O)(=O)Cc1cc(N)cc(Cl)c1O2 [Example 1] . Reported melting point?
Result: 258 to 260 °C

Query: Look at this compound and give its reported melting point. CCOC(=O)c1cc(C)c2c(c1)S(=O)(=O)Cc1cc(NC=O)cc(Cl)c1O2 [Example 10]
Result: 202 to 204 °C

Query: Quick one: melting point for COC(=O)c1cc(C)c2c(c1)S(=O)(=O)Cc1cc(NC=O)cc(Cl)c1O2 [Example 9] ?
Result: 258 to 262 °C (dec.)

Query: Please give the measured melting point for this compound: Cc1cc(C(=O)OC(C)C)cc2c1Oc1c(Cl)cc(NC=O)cc1CS2(=O)=O [Example 11]
Result: 212 to 215 °C

Query: Give its melting point value. Item: CS(=O)(=O)O.Cc1cc(C(=O)O)cc2c1Oc1c(Cl)cc(N3CCNCC3)cc1CS2(=O)=O [Example 19]
Result: 278 to 280 °C

Query: # query: melting point of entry CCN1CCN(c2cc(Cl)c3c(c2)CS(=O)(=O)c2cc(CO)cc(C)c2O3)CC1 [Example 34]
Result: 230 to 232 °C

Query: Please report the recorded melting point for COC(=O)Cc1cc(C)c2c(c1)S(=O)(=O)Cc1cc(N3CCNCC3)cc(Cl)c1O2.Cl [Example 33] .
Result: 280 °C (dec.)

Query: Consider the compound COC(=O)c1cc(C)c2c(c1)S(=O)(=O)Cc1cc(N3CCOCC3)cc(Cl)c1O2 [Example 30] and give its measured melting point.
Result: > 320 °C

Query: State the recorded melting point for this entry: COC(=O)c1cc(C)c2c(c1)S(=O)(=O)Cc1cc(N3CCCNCC3)cc(Cl)c1O2.Cl [Example 29]
Result: 270 °C (dec.)

Query: Record request: melting point value, item COC(=O)c1cc(C)c2c(c1)S(=O)(=O)Cc1cc(N(CCCl)CCCl)cc(Cl)c1O2
Result: 190 to 191 °C

Query: May I ask what melting point has been recorded for COC(=O)c1cc(C)c2c(c1)S(=O)(=O)Cc1cc(N3CCNCC3)cc(Cl)c1O2.Cl [Example 16] ?
Result: 277 to 280 °C

Query: What melting point value was documented for this compound, Cc1cc(C(=O)OC(C)C)cc2c1Oc1c(Cl)cc(N3CCNCC3)cc1CS2(=O)=O.Cl [Example 28] ?
Result: 262 to 264 °C
